MEASURED_TARGET: human PPARgamma (Homo sapiens (Human))
PROTOCOL_DESCRIPTION: Transactivation (reporter gene) assay, GAL4-PPARgamma LBD in U-2 OS cells
STATED_CONDITIONS: 40 h incubation, 16 μM Pioglitazone as 100% control, read-out: EC50 PPARγ
Each record here notes measured EC50.
METRIC: EC50 (µM)

COMPOUND: COC(=O)C(Cc1ccccc1)OC(=O)Cc1ccc(SCc2ccccc2C(=O)O)cc1 (stereo not shown)
ENDPOINT_UNIT: µM
MEASURED_RESULT: 3.9
//
COMPOUND: COC(=O)C(Cc1ccccc1)OC(=O)Cc1cccc(SCc2ccccc2C(=O)O)c1 (stereo not shown)
ENDPOINT_UNIT: µM
MEASURED_RESULT: 6
//
COMPOUND: COc1ccc(CC(=O)OCc2ccc(CC(SCCc3ccc(F)cc3)C(=O)O)cc2)cc1 (stereo not shown)
ENDPOINT_UNIT: µM
MEASURED_RESULT: 2.5
//
COMPOUND: CCOC(Cc1ccc(OC(=O)Cc2ccc(NC(=O)OC(C)(C)C)cc2)c(Cc2ccccc2)c1)C(=O)O (stereo not shown)
ENDPOINT_UNIT: µM
MEASURED_RESULT: 0.0052

###

MEASURED_TARGET: human PPARgamma (Homo sapiens (Human), UniProt P37231)
Sequence (P37231 205-505): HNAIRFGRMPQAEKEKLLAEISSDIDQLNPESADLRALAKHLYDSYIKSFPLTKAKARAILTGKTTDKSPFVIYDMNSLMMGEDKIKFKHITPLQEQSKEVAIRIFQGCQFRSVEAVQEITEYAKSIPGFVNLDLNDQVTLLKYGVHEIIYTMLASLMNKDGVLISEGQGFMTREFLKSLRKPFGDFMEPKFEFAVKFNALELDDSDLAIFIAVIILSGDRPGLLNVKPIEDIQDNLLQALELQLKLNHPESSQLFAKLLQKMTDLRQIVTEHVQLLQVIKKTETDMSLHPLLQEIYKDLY
PROTOCOL_DESCRIPTION: Transactivation (reporter gene) assay, GAL4-PPARgamma LBD in U-2 OS cells
Format: cell-based
STATED_CONDITIONS: 40 h incubation, 16 μM Pioglitazone as 100% control, read-out: EC50 PPARγ

COMPOUND: O=C(Cc1ccc(SCc2ccccc2C(=O)O)cc1)OCc1ccc(C(F)(F)F)cc1
MEASURED_TARGET: human PPARgamma (Homo sapiens (Human), UniProt P37231)
ENDPOINT_UNIT: nM
EC50: 1700
//
COMPOUND: O=C(Cc1cccc(SCc2ccccc2C(=O)O)c1)OCCc1ccccc1C(F)(F)F
MEASURED_TARGET: human PPARgamma (Homo sapiens (Human), UniProt P37231)
ENDPOINT_UNIT: nM
EC50: 9000
//
COMPOUND: O=C(Cc1ccc(CC(SCCc2ccc(F)cc2)C(=O)O)cc1)OCc1ccc(C(F)(F)F)cc1 (stereo not shown)
MEASURED_TARGET: human PPARgamma (Homo sapiens (Human), UniProt P37231)
ENDPOINT_UNIT: nM
EC50: 1700
//
COMPOUND: O=C(Cc1cccc(SCc2ccccc2C(=O)O)c1)OCc1ccc(C(F)(F)F)cc1
MEASURED_TARGET: human PPARgamma (Homo sapiens (Human), UniProt P37231)
ENDPOINT_UNIT: nM
EC50: 2500
//
COMPOUND: CCOC(Cc1ccc(OC(=O)Cc2ccc(NC(=O)OC(C)(C)C)cc2)c(C)c1)C(=O)O (stereo not shown)
MEASURED_TARGET: human PPARgamma (Homo sapiens (Human), UniProt P37231)
ENDPOINT_UNIT: nM
EC50: 73
//
COMPOUND: CN1CCN(CC(=O)OCc2ccc(CC(SCCc3ccc(F)cc3)C(=O)O)cc2)CC1 (stereo not shown)
MEASURED_TARGET: human PPARgamma (Homo sapiens (Human), UniProt P37231)
ENDPOINT_UNIT: nM
EC50: 810
//
COMPOUND: O=C(OCc1ccc(CC(SCCc2ccc(F)cc2)C(=O)O)cc1)c1nc(-c2ccccc2)oc1C(F)(F)F (stereo not shown)
MEASURED_TARGET: human PPARgamma (Homo sapiens (Human), UniProt P37231)
ENDPOINT_UNIT: nM
EC50: 30
//
COMPOUND: O=C(Cc1ccc(CC(C(=O)O)S(=O)(=O)CCc2ccc(F)cc2)cc1)OCc1ccc(C(F)(F)F)cc1 (stereo not shown)
MEASURED_TARGET: human PPARgamma (Homo sapiens (Human), UniProt P37231)
ENDPOINT_UNIT: nM
EC50: 18000
//
COMPOUND: CC(OC(=O)Cc1cccc(SCc2ccccc2C(=O)O)c1)c1ccc(C(F)(F)F)cc1 (stereo not shown)
MEASURED_TARGET: human PPARgamma (Homo sapiens (Human), UniProt P37231)
ENDPOINT_UNIT: nM
EC50: 3500
//
COMPOUND: CC(C(=O)OCc1ccc(CC(SCCc2ccc(F)cc2)C(=O)O)cc1)c1ccccc1 (stereo not shown)
MEASURED_TARGET: human PPARgamma (Homo sapiens (Human), UniProt P37231)
ENDPOINT_UNIT: nM
EC50: 1700
//
COMPOUND: O=C(Cc1ccc(C(F)(F)F)cc1)OCc1ccc(SCc2ccccc2C(=O)O)cc1
MEASURED_TARGET: human PPARgamma (Homo sapiens (Human), UniProt P37231)
ENDPOINT_UNIT: nM
EC50: 760
//
COMPOUND: CCO[C@@H](Cc1ccc(OC(=O)Cc2ccc(NC(=O)OC(C)(C)C)cc2)cc1)C(=O)O
MEASURED_TARGET: human PPARgamma (Homo sapiens (Human), UniProt P37231)
ENDPOINT_UNIT: nM
EC50: 18000
//
COMPOUND: CC(C)Cc1ccc(C(C)C(=O)OCc2ccc(CC(SCCc3ccc(F)cc3)C(=O)O)cc2)cc1 (stereo not shown)
MEASURED_TARGET: human PPARgamma (Homo sapiens (Human), UniProt P37231)
ENDPOINT_UNIT: nM
EC50: 930
//
COMPOUND: CS(=O)(=O)Oc1ccc(CC(=O)OCCc2ccc(CC(SCCc3ccc(F)cc3)C(=O)O)cc2)cc1 (stereo not shown)
MEASURED_TARGET: human PPARgamma (Homo sapiens (Human), UniProt P37231)
ENDPOINT_UNIT: nM
EC50: 6000
//
COMPOUND: Cc1oc(-c2ccccc2)nc1CC(=O)OCc1ccc(CC(SCCc2ccc(F)cc2)C(=O)O)cc1 (stereo not shown) [Example 15]
MEASURED_TARGET: human PPARgamma (Homo sapiens (Human), UniProt P37231)
ENDPOINT_UNIT: nM
EC50: 840
//
COMPOUND: O=C(Cc1cccc(SCc2ccccc2C(=O)O)c1)OCCc1ccc(C(F)(F)F)cc1
MEASURED_TARGET: human PPARgamma (Homo sapiens (Human), UniProt P37231)
ENDPOINT_UNIT: nM
EC50: 3000

###

MEASURED_TARGET: human PPARalpha (Homo sapiens (Human), UniProt Q07869)
Sequence (Q07869 168-468): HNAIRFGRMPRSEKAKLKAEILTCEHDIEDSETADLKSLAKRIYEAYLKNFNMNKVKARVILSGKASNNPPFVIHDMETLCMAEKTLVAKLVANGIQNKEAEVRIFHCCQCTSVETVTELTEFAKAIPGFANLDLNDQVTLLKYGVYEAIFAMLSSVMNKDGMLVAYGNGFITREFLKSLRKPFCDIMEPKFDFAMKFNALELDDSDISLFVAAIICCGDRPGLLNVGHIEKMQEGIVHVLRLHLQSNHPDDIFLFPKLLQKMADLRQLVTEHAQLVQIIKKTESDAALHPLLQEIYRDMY
PROTOCOL_DESCRIPTION: Transactivation (reporter gene) assay, GAL4-PPARalpha LBD in U-2 OS cells
STATED_CONDITIONS: 40 h incubation, 16 μM ETYA as 100% control, read-out: EC50 PPARα
pEC50: −log10 of the molar value.
Each record here notes measured pEC50.
METRIC: pEC50

COMPOUND: O=C(Cc1ccc(CC(SCCc2ccc(F)cc2)C(=O)O)cc1)OCc1ccc(C(F)(F)F)cc1 (stereo not shown) [Example 3]
MEASURED_TARGET: human PPARalpha (Homo sapiens (Human), UniProt Q07869)
MEASURED_RESULT: 7.25
//
COMPOUND: COc1ccc(CCOC(=O)Cc2cccc(SCc3ccccc3C(=O)O)c2)cc1OC [Example 44]
MEASURED_TARGET: human PPARalpha (Homo sapiens (Human), UniProt Q07869)
MEASURED_RESULT: 4.74
//
COMPOUND: O=C(Cc1ccc(SCc2ccccc2C(=O)O)cc1)OCc1ccc(C(F)(F)F)cc1 [Example 30]
MEASURED_TARGET: human PPARalpha (Homo sapiens (Human), UniProt Q07869)
MEASURED_RESULT: 6.80
//
COMPOUND: Cc1cccc(C)c1COC(=O)Cc1cccc(SCc2ccccc2C(=O)O)c1 [Example 41]
MEASURED_TARGET: human PPARalpha (Homo sapiens (Human), UniProt Q07869)
MEASURED_RESULT: 4.82

###

MEASURED_TARGET: human PPARalpha (Homo sapiens (Human), UniProt Q07869)
PROTOCOL_DESCRIPTION: Transactivation (reporter gene) assay, GAL4-PPARalpha LBD in U-2 OS cells
STATED_CONDITIONS: 40 h incubation, 16 μM ETYA as 100% control, read-out: EC50 PPARα
pEC50: −log10 of the molar value.

COMPOUND: O=C(Cc1ccc(C(F)(F)F)cc1)OCc1ccc(SCc2ccccc2C(=O)O)cc1 [Example 29]
pEC50: 7.54
//
COMPOUND: O=C(Cc1ccc(SCc2ccccc2C(=O)O)cc1)OCc1ccc(-n2cccn2)cc1 [Example 43]
pEC50: 4.80
//
COMPOUND: CN1CCN(CC(=O)OCc2ccc(CC(SCCc3ccc(F)cc3)C(=O)O)cc2)CC1 (centres unmarked) [Example 11]
pEC50: 6.82
//
COMPOUND: O=C(OCc1ccc(CC(SCCc2ccc(F)cc2)C(=O)O)cc1)c1nc(-c2ccccc2)oc1C(F)(F)F (centres unmarked) [Example 13]
pEC50: 7.92
//
COMPOUND: O=C(Cc1cccc(SCc2ccccc2C(=O)O)c1)OCc1ccc(-n2cccn2)cc1 [Example 42]
pEC50: 4.74
//
COMPOUND: CC(C)Cc1ccc(C(C)C(=O)OCc2ccc(CC(SCCc3ccc(F)cc3)C(=O)O)cc2)cc1 (centres unmarked) [Example 9]
pEC50: 5.82
//
COMPOUND: CC(C(=O)OCc1ccc(CC(SCCc2ccc(F)cc2)C(=O)O)cc1)c1ccccc1 (centres unmarked) [Example 7]
pEC50: 4.74
//
COMPOUND: O=C(Cc1cccc(SCc2ccccc2C(=O)O)c1)OCc1ccc(C(F)(F)F)cc1 [Example 28]
pEC50: 5.89

This collection of values is drawn from patent US9181181B2.
